Parameter: GI50. Scope: all listed entries.
test system: CAKI-1; experiment: Growth inhibition of human CAKI-1 cells by sulforhodamine B assay; format: functional; conditions: read-out: GI50
# number only, unit µM dropped from output

Before answering, review these 4 worked examples.
compound	GI50, µM
CC1(C)C[C@@H](O)[C@]2(C(=O)O)CC[C@]3(C)C(=CC[C@@H]4[C@@]5(C)C/C(=C\C=C\c6ccccc6)C(=O)C(C)(C)[C@@H]5CC[C@]43C)[C@@H]2C1	3.57
C/C=C(/C)C(=O)O[C@@H]1CC(C)(C)C[C@H]2C3=CC[C@@H]4[C@@]5(C)CCC(=O)C(C)(C)[C@@H]5CC[C@@]4(C)[C@]3(C)CC[C@@]12C(=O)O [LANTADENE A]	3.93
CC(C)=CC(=O)O[C@@H]1CC(C)(C)C[C@H]2C3=CC[C@@H]4[C@@]5(C)CC[C@H](O)C(C)(C)[C@@H]5CC[C@@]4(C)[C@]3(C)CC[C@@]12C(=O)O [Reduced Lantadene B]	3.39
C/C=C(/C)C(=O)O[C@@H]1CC(C)(C)C[C@H]2C3=CC[C@@H]4[C@@]5(C)CC[C@H](O)C(C)(C)[C@@H]5CC[C@@]4(C)[C@]3(C)CC[C@@]12C(=O)O [Reduced Lantadene A]	2.48

GI50 reported for this compound CC(C)=CC(=O)O[C@@H]1CC(C)(C)C[C@H]2C3=CC[C@@H]4[C@@]5(C)CCC(=O)C(C)(C)[C@@H]5CC[C@@]4(C)[C@]3(C)CC[C@@]12C(=O)O : 3.84

----------
system: A549; assay: Growth inhibition of human A549/ATCC cells assessed as cell growth at 10^-6 M by sulforhodamine B assay; assay type: functional; details: read-out: Activity
Define the label as TRUE when growth at 1 µM is strictly less than 80% and as FALSE in all remaining cases.

molecule	assignedLabel
CC1(C)C[C@@H](O)[C@]2(C(=O)O)CC[C@]3(C)C(=CC[C@@H]4[C@@]5(C)C/C(=C\C=C\c6ccccc6)C(=O)C(C)(C)[C@@H]5CC[C@]43C)[C@@H]2C1	FALSE

For this molecule, is growth at 1 µM lower than 80%? CC(C)=CC(=O)O[C@@H]1CC(C)(C)C[C@H]2C3=CC[C@@H]4[C@@]5(C)CCC(=O)C(C)(C)[C@@H]5CC[C@@]4(C)[C@]3(C)CC[C@@]12C(=O)O
TRUE

Consider C/C=C(/C)C(=O)O[C@@H]1CC(C)(C)C[C@H]2C3=CC[C@@H]4[C@@]5(C)CC[C@H](O)C(C)(C)[C@@H]5CC[C@@]4(C)[C@]3(C)CC[C@@]12C(=O)O [Reduced Lantadene A] . Does its growth at 1 µM lie strictly below 80%?
TRUE

hey, is growth at 1 µM for CC(C)=CC(=O)O[C@@H]1CC(C)(C)C[C@H]2C3=CC[C@@H]4[C@@]5(C)CC[C@H](O)C(C)(C)[C@@H]5CC[C@@]4(C)[C@]3(C)CC[C@@]12C(=O)O [Reduced Lantadene B] lower than 80% or not?
TRUE

----------
system: A498; test: Growth inhibition of human A498 cells assessed as cell growth at 10^-8 M by sulforhodamine B assay; format: functional; settings: read-out: Activity
Measured growth at 0.01 µM of individual entries
Give a bare numeral; the unit % is implied.

lineNotation	recordedMetric	measurement
CC(C)=CC(=O)O[C@@H]1CC(C)(C)C[C@H]2C3=CC[C@@H]4[C@@]5(C)CC[C@H](O)C(C)(C)[C@@H]5CC[C@@]4(C)[C@]3(C)CC[C@@]12C(=O)O	growth at 0.01 µM	84
C/C=C(/C)C(=O)O[C@@H]1CC(C)(C)C[C@H]2C3=CC[C@@H]4[C@@]5(C)CC[C@H](O)C(C)(C)[C@@H]5CC[C@@]4(C)[C@]3(C)CC[C@@]12C(=O)O	growth at 0.01 µM	79
CC(C)=CC(=O)O[C@@H]1CC(C)(C)C[C@H]2C3=CC[C@@H]4[C@@]5(C)CCC(=O)C(C)(C)[C@@H]5CC[C@@]4(C)[C@]3(C)CC[C@@]12C(=O)O	growth at 0.01 µM	86
CC1(C)C[C@@H](O)[C@]2(C(=O)O)CC[C@]3(C)C(=CC[C@@H]4[C@@]5(C)C/C(=C\C=C\c6ccccc6)C(=O)C(C)(C)[C@@H]5CC[C@]43C)[C@@H]2C1	growth at 0.01 µM	82

GET /value?item= C/C=C(/C)C(=O)O[C@@H]1CC(C)(C)C[C@H]2C3=CC[C@@H]4[C@@]5(C)CCC(=O)C(C)(C)[C@@H]5CC[C@@]4(C)[C@]3(C)CC[C@@]12C(=O)O &field=growth at 0.01 µM returns 83

----------
test system: NCI-H322M; assay: Growth inhibition of human NCI-H322M cells by sulforhodamine B assay; assay type: functional; conditions: read-out: pGI50 (converted)
molecules and their reported GI50
The reply should be a number in µM, with the unit left off.

These solved cases illustrate the format of a correct answer.
lineNotation	GI50, µM
CC1(C)C[C@@H](O)[C@]2(C(=O)O)CC[C@]3(C)C(=CC[C@@H]4[C@@]5(C)C/C(=C\C=C\c6ccccc6)C(=O)C(C)(C)[C@@H]5CC[C@]43C)[C@@H]2C1	3.47
C/C=C(/C)C(=O)O[C@@H]1CC(C)(C)C[C@H]2C3=CC[C@@H]4[C@@]5(C)CC[C@H](O)C(C)(C)[C@@H]5CC[C@@]4(C)[C@]3(C)CC[C@@]12C(=O)O	1.78
CC(C)=CC(=O)O[C@@H]1CC(C)(C)C[C@H]2C3=CC[C@@H]4[C@@]5(C)CC[C@H](O)C(C)(C)[C@@H]5CC[C@@]4(C)[C@]3(C)CC[C@@]12C(=O)O	3.63
C/C=C(/C)C(=O)O[C@@H]1CC(C)(C)C[C@H]2C3=CC[C@@H]4[C@@]5(C)CCC(=O)C(C)(C)[C@@H]5CC[C@@]4(C)[C@]3(C)CC[C@@]12C(=O)O	3.98

Form field GI50, entry CC(C)=CC(=O)O[C@@H]1CC(C)(C)C[C@H]2C3=CC[C@@H]4[C@@]5(C)CCC(=O)C(C)(C)[C@@H]5CC[C@@]4(C)[C@]3(C)CC[C@@]12C(=O)O : 2.88

----------
tested on: OVCAR-5; experiment: Growth inhibition of human OVCAR5 cells by sulforhodamine B assay; type: functional; details: read-out: TGI
Recorded TGI for the following compounds
Numeric answer only, unit µM assumed.

Worked examples, 3 compounds total:
lineNotation	targetOrSystem	TGI / µM
CC1(C)C[C@@H](O)[C@]2(C(=O)O)CC[C@]3(C)C(=CC[C@@H]4[C@@]5(C)C/C(=C\C=C\c6ccccc6)C(=O)C(C)(C)[C@@H]5CC[C@]43C)[C@@H]2C1	OVCAR-5	10.5
CC(C)=CC(=O)O[C@@H]1CC(C)(C)C[C@H]2C3=CC[C@@H]4[C@@]5(C)CCC(=O)C(C)(C)[C@@H]5CC[C@@]4(C)[C@]3(C)CC[C@@]12C(=O)O	OVCAR-5	32.7
CC(C)=CC(=O)O[C@@H]1CC(C)(C)C[C@H]2C3=CC[C@@H]4[C@@]5(C)CC[C@H](O)C(C)(C)[C@@H]5CC[C@@]4(C)[C@]3(C)CC[C@@]12C(=O)O	OVCAR-5	39.7

Query compound follows.
TGI in this record for C/C=C(/C)C(=O)O[C@@H]1CC(C)(C)C[C@H]2C3=CC[C@@H]4[C@@]5(C)CC[C@H](O)C(C)(C)[C@@H]5CC[C@@]4(C)[C@]3(C)CC[C@@]12C(=O)O : 8.9

----------
Recorded TGI values for a group of molecules are listed next.
test system: OVCAR-8; experiment: Growth inhibition of human OVCAR8 cells by sulforhodamine B assay; assay type: functional; settings: read-out: pTGI (converted)
Quick note: give the figure in µM, leave out the unit.

Please fill in: TGI reported for CC1(C)C[C@@H](O)[C@]2(C(=O)O)CC[C@]3(C)C(=CC[C@@H]4[C@@]5(C)C/C(=C\C=C\c6ccccc6)C(=O)C(C)(C)[C@@H]5CC[C@]43C)[C@@H]2C1 = 14.1

Note to self: TGI recorded for C/C=C(/C)C(=O)O[C@@H]1CC(C)(C)C[C@H]2C3=CC[C@@H]4[C@@]5(C)CC[C@H](O)C(C)(C)[C@@H]5CC[C@@]4(C)[C@]3(C)CC[C@@]12C(=O)O [Reduced Lantadene A] was 3.89

// field: TGI; key: CC(C)=CC(=O)O[C@@H]1CC(C)(C)C[C@H]2C3=CC[C@@H]4[C@@]5(C)CC[C@H](O)C(C)(C)[C@@H]5CC[C@@]4(C)[C@]3(C)CC[C@@]12C(=O)O [Reduced Lantadene B] ; value = 28.8

----------
Let's look at some compounds and their measured TGI.
system: KM12; test: Growth inhibition of human KM12 cells by sulforhodamine B assay; format: functional; details: read-out: pTGI (converted)

Illustrative cases are given below, each with its answer.
lineNotation	TGI
CC1(C)C[C@@H](O)[C@]2(C(=O)O)CC[C@]3(C)C(=CC[C@@H]4[C@@]5(C)C/C(=C\C=C\c6ccccc6)C(=O)C(C)(C)[C@@H]5CC[C@]43C)[C@@H]2C1	11.2 µM
C/C=C(/C)C(=O)O[C@@H]1CC(C)(C)C[C@H]2C3=CC[C@@H]4[C@@]5(C)CC[C@H](O)C(C)(C)[C@@H]5CC[C@@]4(C)[C@]3(C)CC[C@@]12C(=O)O	2.95 µM
CC(C)=CC(=O)O[C@@H]1CC(C)(C)C[C@H]2C3=CC[C@@H]4[C@@]5(C)CC[C@H](O)C(C)(C)[C@@H]5CC[C@@]4(C)[C@]3(C)CC[C@@]12C(=O)O	19.5 µM
C/C=C(/C)C(=O)O[C@@H]1CC(C)(C)C[C@H]2C3=CC[C@@H]4[C@@]5(C)CCC(=O)C(C)(C)[C@@H]5CC[C@@]4(C)[C@]3(C)CC[C@@]12C(=O)O	> 100 µM

For CC(C)=CC(=O)O[C@@H]1CC(C)(C)C[C@H]2C3=CC[C@@H]4[C@@]5(C)CCC(=O)C(C)(C)[C@@H]5CC[C@@]4(C)[C@]3(C)CC[C@@]12C(=O)O the compound record lists TGI as 15.5 µM
